Assay: Toxicity in MDBK cells
Type: cell-based, Bos taurus
Settings: cattle
Test readout: CC50 (µM)
State the answer as a number, implicitly in µM.

Noted for NC(=O)c1nccn([C@@H]2O[C@H](CO)[C@@H](O)[C@H]2O)c1=O : its CC50 reads 2900
